- tested.target: NACHT, LRR and PYD domains-containing protein 3 (Mus musculus) (UniProt Q8R4B8)
- Sequence (Q8R4B8 whole entry, the tested form may be a part): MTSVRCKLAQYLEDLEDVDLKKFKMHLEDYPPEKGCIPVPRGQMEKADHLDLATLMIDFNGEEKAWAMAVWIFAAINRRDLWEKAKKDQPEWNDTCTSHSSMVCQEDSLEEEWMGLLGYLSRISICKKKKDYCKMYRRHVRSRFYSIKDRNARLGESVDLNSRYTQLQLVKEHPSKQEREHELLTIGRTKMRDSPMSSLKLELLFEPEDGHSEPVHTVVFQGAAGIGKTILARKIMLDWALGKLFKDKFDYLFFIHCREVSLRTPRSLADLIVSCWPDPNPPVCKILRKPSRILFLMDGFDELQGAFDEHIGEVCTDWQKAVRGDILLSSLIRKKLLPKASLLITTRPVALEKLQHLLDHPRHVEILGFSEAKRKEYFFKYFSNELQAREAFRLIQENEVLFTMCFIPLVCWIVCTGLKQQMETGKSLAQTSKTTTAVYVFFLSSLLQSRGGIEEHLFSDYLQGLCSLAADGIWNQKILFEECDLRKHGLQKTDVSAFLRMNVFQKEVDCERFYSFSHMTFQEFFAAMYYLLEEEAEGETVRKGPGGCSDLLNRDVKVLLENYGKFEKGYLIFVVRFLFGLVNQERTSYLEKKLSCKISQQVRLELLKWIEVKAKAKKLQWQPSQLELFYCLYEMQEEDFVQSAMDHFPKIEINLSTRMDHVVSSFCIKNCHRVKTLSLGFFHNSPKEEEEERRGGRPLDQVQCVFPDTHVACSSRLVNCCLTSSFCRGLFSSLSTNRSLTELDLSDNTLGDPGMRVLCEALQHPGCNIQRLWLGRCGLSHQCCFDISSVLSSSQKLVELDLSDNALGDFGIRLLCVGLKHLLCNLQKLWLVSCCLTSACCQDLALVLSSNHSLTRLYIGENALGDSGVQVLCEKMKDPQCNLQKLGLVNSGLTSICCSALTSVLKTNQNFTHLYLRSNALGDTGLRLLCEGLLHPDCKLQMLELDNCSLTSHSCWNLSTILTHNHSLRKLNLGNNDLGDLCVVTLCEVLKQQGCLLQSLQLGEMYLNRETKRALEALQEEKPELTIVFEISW
- experiment: Inhibition of NLRP3 inflammasome activation in mouse […] cells assessed as reduction in LPS/ATP-induced IL-1 beta release at 10 uM pretreated with LPS for 4.5 hrs followed by compound addition for 30 mins prior to ATP addition and measured after 30 mins by ELISA relative to control
- Assay type: cell-based
- run.parameters: J774.A1, time 5.5 hrs
Parameter threshold = 60%. Response is Y when inhibition meets or exceeds it, else N.

{"cpd.smiles": "CCCC(CCC)C(=O)Nc1ccc(-c2ccccc2N(Cc2cc(Cl)ccc2OCCOC)C(=O)Cc2ccsc2)cc1", "category": "N"}
{"cpd.smiles": "CCCCCC(=O)Nc1ccc(-c2ccccc2N(Cc2cc(Cl)ccc2OCCOC)C(=O)Cc2ccsc2)cc1", "category": "Y"}
{"cpd.smiles": "CCS(=O)(=O)Nc1ccc(-c2ccccc2N(Cc2cc(Cl)ccc2OCCOC)C(=O)Cc2ccsc2)cc1", "category": "N"}
{"cpd.smiles": "CCCC(=O)Nc1ccc(-c2ccccc2N(Cc2cc(Cl)ccc2OCCOC)C(=O)Cc2ccsc2)cc1", "category": "Y"}
{"cpd.smiles": "COCCOc1ccc(Cl)cc1CN(C(=O)Cc1ccsc1)c1ccccc1-c1ccc(NC(=O)C(C)C)cc1", "category": "Y"}
{"cpd.smiles": "COCCOc1ccc(Cl)cc1CN(C(=O)Cc1ccsc1)c1ccccc1-c1ccc(NC(C)=O)cc1", "category": "N"}
{"cpd.smiles": "CCC(=O)Nc1ccc(-c2ccccc2N(Cc2ccc(F)cc2)C(=O)c2ccc(F)cc2)cc1", "category": "N"}
{"cpd.smiles": "COCCOc1ccc(Cl)cc1CN(C(=O)Cc1ccsc1)c1ccccc1-c1ccc(NC(=O)C2CC2)cc1", "category": "Y"}
{"cpd.smiles": "CCC(=O)Nc1ccc(-c2ccccc2N(Cc2cc(Cl)ccc2OCCOC)C(=O)c2c(F)c(F)c(F)c(F)c2F)cc1", "category": "N"}
{"cpd.smiles": "CCS(=O)(=O)Nc1ccc(-c2ccccc2N(Cc2cc(Cl)ccc2OCCOC)C(=O)c2ccc(F)cc2)cc1", "category": "Y"}
{"cpd.smiles": "CCNC(=S)Nc1ccc(-c2ccccc2N(Cc2cc(Cl)ccc2OCCOC)C(=O)Cc2ccsc2)cc1", "category": "Y"}
{"cpd.smiles": "COCCOc1ccc(Cl)cc1CN(C(=O)Cc1ccsc1)c1ccccc1-c1ccc(NC(=O)C2CCCCC2)cc1", "category": "N"}
{"cpd.smiles": "CCC(=O)Nc1ccc(-c2ccccc2N(Cc2cc(Cl)ccc2OCC(C)(F)F)C(=O)Cc2ccsc2)cc1", "category": "Y"}
{"cpd.smiles": "CCNC(=O)Nc1ccc(-c2ccccc2N(Cc2cc(Cl)ccc2OCCOC)C(=O)Cc2ccsc2)cc1", "category": "Y"}
